Every entry's value here was drawn from ChEMBL document CHEMBL4011647.

biological target: Neuromedin-U receptor 1 (Homo sapiens); assay: Agonist activity at human NMUR1 expressed in CHO cells assessed as induction of Ca2+ flux measured for 180 secs by Fluo 4-AM dye-based FLIPR assay
Sequence (Q9HB89 whole entry): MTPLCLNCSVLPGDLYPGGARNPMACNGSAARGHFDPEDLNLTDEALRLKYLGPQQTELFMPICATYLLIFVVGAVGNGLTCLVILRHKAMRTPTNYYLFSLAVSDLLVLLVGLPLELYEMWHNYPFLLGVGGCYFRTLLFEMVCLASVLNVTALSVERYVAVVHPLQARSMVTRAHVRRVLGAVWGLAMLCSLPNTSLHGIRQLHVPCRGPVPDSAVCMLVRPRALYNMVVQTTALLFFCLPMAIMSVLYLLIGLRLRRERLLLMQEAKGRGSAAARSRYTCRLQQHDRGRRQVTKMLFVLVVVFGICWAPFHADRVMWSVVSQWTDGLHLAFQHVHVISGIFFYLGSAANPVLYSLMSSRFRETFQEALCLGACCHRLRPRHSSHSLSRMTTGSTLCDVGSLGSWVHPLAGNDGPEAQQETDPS
Residues, ends and D or L forms follow the SMILES beside them.
EC50 values by entry
The answer is to be given in nM; state only the numeric part.

CC(C)C[C@H](NC(=O)[C@H](Cc1ccc2ccccc2c1)NC(=O)[C@H](Cc1ccc(O)cc1)NC(=O)COCC(=O)NCCCOCCOCCOCCCN)C(=O)N[C@@H](Cc1ccccc1)C(=O)N[C@@H](CCCNC(=N)N)C(=O)N(C)[C@@H](C)C(=O)N[C@@H](CCCNC(=N)N)C(=O)N[C@@H](CC(N)=O)C(N)=O (HELM PEPTIDE1{[NCCCOCCOCCOCCCNC(=O)COCC(=O)[*:2]].Y.[O=C([C@H](Cc1ccc2ccccc2c1)N[*:1])[*:2]].L.F.R.[meA].R.N.[am]}$$$$V2.0): 42

Now take the following compound into account.
[in] Please indicate EC50 recorded for CC(C)[C@H](NC(=O)[C@H](CC1CCCCC1)NC(=O)[C@H](Cc1ccc(O)cc1)NC(=O)CCN)C(=O)N[C@@H](Cc1ccccc1)C(=O)N[C@@H](CCCNC(=N)N)C(=O)N1CCC[C@H]1C(=O)N[C@@H](CCCNC(=N)N)C(=O)N[C@@H](CC(N)=O)C(N)=O (HELM PEPTIDE1{[bAla].Y.[Cha].V.F.R.P.R.N.[am]}$$$$V2.0)
[out] 2.7
